# STUDY_SYSTEM: UniProtKB O60674
# ASSAY_OVERVIEW: JAK2 Tyrosine Kinase Assay
# Type: biochemical
# MEASUREMENT_CONTEXT: prior-art compound, stated in the background; read-out: IC50 against JAK2
# Method: JAK2 Tyrosine Kinase Assay The assays were performed in V-bottom 384-well plates. […] The reaction was initiated by the combination of JAK2 with substrates and test compounds. […] The reaction mixture was analyzed on the Caliper LabChip 3000 by electrophoretic separation of the fluorescent substrate and phosphorylated product. […] Compounds were dissolved at 10 mM in dimethylsulfoxide (DMSO) and evaluated at eleven concentrations, each in duplicate. […]
PROPERTY: IC50

INSERT INTO measurements (molecule, study_system, property, recorded_result) VALUES
  ('Cc1cc(Nc2nc(N3CCNCC3)nn3cccc23)[nH]n1 [Example 74 of the publication, reference compound]', 'UniProtKB O60674', 'IC50', '31 nM');

----------
# STUDY_SYSTEM: JAK2 (Homo sapiens)
# Sequence (O60674 whole entry): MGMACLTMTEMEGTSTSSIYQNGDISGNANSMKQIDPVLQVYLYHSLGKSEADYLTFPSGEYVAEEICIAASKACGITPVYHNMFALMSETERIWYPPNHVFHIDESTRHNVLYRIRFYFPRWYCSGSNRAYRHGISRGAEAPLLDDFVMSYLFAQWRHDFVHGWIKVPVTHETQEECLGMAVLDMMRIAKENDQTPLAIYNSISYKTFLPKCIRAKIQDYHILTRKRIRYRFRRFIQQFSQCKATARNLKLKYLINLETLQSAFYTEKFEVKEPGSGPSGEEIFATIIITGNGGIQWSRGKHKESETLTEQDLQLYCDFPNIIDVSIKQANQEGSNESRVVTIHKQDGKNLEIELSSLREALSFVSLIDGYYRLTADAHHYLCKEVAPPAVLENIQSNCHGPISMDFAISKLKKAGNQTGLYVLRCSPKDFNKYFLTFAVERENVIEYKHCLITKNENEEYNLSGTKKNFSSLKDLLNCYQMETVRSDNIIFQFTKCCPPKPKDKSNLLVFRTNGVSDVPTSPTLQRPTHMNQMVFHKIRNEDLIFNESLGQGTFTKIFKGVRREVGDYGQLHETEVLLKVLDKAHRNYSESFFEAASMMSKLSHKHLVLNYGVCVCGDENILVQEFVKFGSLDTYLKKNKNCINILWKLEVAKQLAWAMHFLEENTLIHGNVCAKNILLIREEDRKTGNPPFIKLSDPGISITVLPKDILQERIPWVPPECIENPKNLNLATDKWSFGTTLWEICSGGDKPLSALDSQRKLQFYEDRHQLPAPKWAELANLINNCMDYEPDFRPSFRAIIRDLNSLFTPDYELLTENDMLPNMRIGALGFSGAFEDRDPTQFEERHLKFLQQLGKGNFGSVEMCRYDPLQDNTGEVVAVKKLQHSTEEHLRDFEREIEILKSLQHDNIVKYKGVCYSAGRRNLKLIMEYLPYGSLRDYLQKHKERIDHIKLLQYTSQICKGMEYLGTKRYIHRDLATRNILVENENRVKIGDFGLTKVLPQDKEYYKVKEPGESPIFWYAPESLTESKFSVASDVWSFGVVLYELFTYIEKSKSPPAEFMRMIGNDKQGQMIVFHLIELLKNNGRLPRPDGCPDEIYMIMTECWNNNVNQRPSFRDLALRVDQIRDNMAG
# ASSAY_OVERVIEW: JAK2 Tyrosine Kinase Assay
# Format: biochemical
# MEASUREMENT_CONTEXT: ATP 30 μM; JAK2 1 nM; 60 min room temperature; read-out: Jak2(IC50)
// assign T if IC50 falls strictly below 8 nM, else F (ties count as F)

INSERT INTO measurements (compound, category) VALUES
  ('Cc1cc(Nc2nc(N3CCN(C(=O)C4(c5ccc(F)cc5)CCCCC4)CC3)nn3cccc23)n[nH]1 [Example 126]', 'F'),
  ('Cc1cc(Nc2nc(N3CCN(C(=O)Cc4ccc(OC(F)(F)F)cc4)CC3)nn3cccc23)n[nH]1 [Example 91]', 'T'),
  ('Cc1cc(Nc2nc(N3CCN(C(=O)c4ccccc4-c4ccccc4)CC3)nn3cccc23)n[nH]1 [Example 200]', 'T'),
  ('Cc1cc(Nc2nc(N3CCN(C(=O)Cc4c(Cl)cccc4Cl)CC3)nn3cccc23)n[nH]1 [Example 38]', 'T'),
  ('Cc1cc(Nc2nc(N3CCN(C(=O)C(C)(C)c4ccccc4)CC3)nn3cccc23)n[nH]1 [Example 7]', 'F'),
  ('Cc1cc(Nc2nc(N3CCN(C(=O)Cc4ccc(C(F)(F)F)cc4)CC3)nn3cccc23)n[nH]1 [Example 43]', 'F'),
  ('Cc1cc(Nc2nc(N3CCN(C(=O)Cc4ccc(C(F)(F)F)cc4C(F)(F)F)CC3)nn3cccc23)n[nH]1 [Example 134]', 'T'),
  ('Cc1cc(Nc2nc(N3CCN(C(=O)[C@@H](NC(=O)OC(C)(C)C)c4ccc(F)cc4)CC3)nn3cccc23)n[nH]1 [Example 132]', 'T'),
  ('CCC(O)(CC)C(=O)N1CCN(c2nc(Nc3cc(C)[nH]n3)c3cccn3n2)CC1 [Example 164]', 'F'),
  ('CO[C@@H](C(=O)N1CCN(c2nc(Nc3cc(C)[nH]n3)c3cccn3n2)CC1)c1ccccc1 [Example 110]', 'T'),
  ('Cc1cnc(C(=O)N2CCN(c3nc(Nc4cc(C)[nH]n4)c4cccn4n3)CC2)cn1 [Example 32]', 'T'),
  ('Cc1cc(Nc2nc(N3CCN(C(=O)[C@@](C)(O)c4ccccc4)CC3)nn3cccc23)n[nH]1 [Example 211]', 'F'),
  ('Cc1cc(Nc2nc(N3CCN(C(=O)c4ccccc4S(C)(=O)=O)CC3)nn3cccc23)n[nH]1 [Example 193]', 'F'),
  ('Cc1cc(Nc2nc(N3CCN(C(=O)c4cccc(C#N)c4)CC3)nn3cccc23)n[nH]1 [Example 66]', 'T'),
  ('CCC(CO)(CO)C(=O)N1CCN(c2nc(Nc3cc(C)[nH]n3)c3cccn3n2)CC1 [Example 152]', 'F'),
  ('Cc1cc(Nc2nc(N3CCN(C(=O)c4ccc(F)cc4)CC3)nn3cccc23)n[nH]1 [Example 24]', 'T'),
  ('Cc1cc(Nc2nc(N3CCN(C(=O)Cc4ccccc4C(F)(F)F)CC3)nn3cccc23)n[nH]1 [Example 10]', 'T'),
  ('Cc1cc(Nc2nc(N3CCN(C(=O)c4ncccn4)CC3)nn3cccc23)n[nH]1 [Example 95]', 'T');

----------
Recorded measurements of IC50, one per entry
# STUDY_SYSTEM: JAK3 (Homo sapiens, UniProt P52333)
# ASSAY_OVERVIEW: JAK3 Tyrosine Kinase Assay
# Assay type: biochemical
# MEASUREMENT_CONTEXT: ATP 8 μM; JAK3 2.5 nM; 60 min room temperature
PROPERTY: IC50

INSERT INTO measurements (compound, study_system, property, recorded_result) VALUES
  ('Cc1cc(Nc2nc(N3CCN(C(=O)c4ccc(F)cc4)CC3)nn3cccc23)n[nH]1 [Example 24]', 'JAK3 (Homo sapiens, UniProt P52333)', 'IC50', '5.98 nM'),
  ('Cc1cc(Nc2nc(N3CCN(C(=O)c4c(F)cccc4F)CC3)nn3cccc23)n[nH]1 [Example 20]', 'JAK3 (Homo sapiens, UniProt P52333)', 'IC50', '50 nM'),
  ('CO[C@@H](C(=O)N1CCN(c2nc(Nc3cc(C)[nH]n3)c3cccn3n2)CC1)c1ccccc1 [Example 110]', 'JAK3 (Homo sapiens, UniProt P52333)', 'IC50', '20 nM'),
  ('CO[C@H](C(=O)N1CCN(c2nc(Nc3cc(C)[nH]n3)c3cccn3n2)CC1)c1ccccc1 [Example 90]', 'JAK3 (Homo sapiens, UniProt P52333)', 'IC50', '70 nM');

----------
# Lookup of reported pIC50 keyed by entry
# STUDY_SYSTEM: UniProtKB O60674
# ASSAY_OVERVIEW: JAK2 Tyrosine Kinase Assay
# Type: biochemical
# MEASUREMENT_CONTEXT: list of named compounds; read-out: IC50 in the JAK2 assay
pIC50: −log10 of the molar value.
PROPERTY: pIC50

INSERT INTO measurements (compound, recorded_result) VALUES
  ('Cc1cc(Nc2nc(N3CCN(C(=O)Cc4cccc(C#N)c4)CC3)nn3cccc23)n[nH]1', '≥ 8.30'),
  ('Cc1cc(Nc2nc(N3CCN(C(=O)c4cccc(Cl)c4)CC3)nn3cccc23)n[nH]1', '≥ 8.30'),
  ('CO[C@](C(=O)N1CCN(c2nc(Nc3cc(C)[nH]n3)c3cccn3n2)CC1)(c1ccccc1)C(F)(F)F', '≥ 8.30'),
  ('Cc1cc(Nc2nc(N3CCN(C(=O)c4cccc(F)c4)CC3)nn3cccc23)n[nH]1', '≥ 8.30'),
  ('Cc1cc(Nc2nc(N3CCN(C(=O)C(O)c4ccc(F)cc4)CC3)nn3cccc23)n[nH]1 (stereo not drawn)', '≥ 8.30'),
  ('Cc1cc(Nc2nc(N3CCN(C(=O)c4ccccc4C#N)CC3)nn3cccc23)n[nH]1', '≥ 8.30'),
  ('Cc1cc(Nc2nc(N3CCN(C(=O)Cc4ccccc4C#N)CC3)nn3cccc23)n[nH]1', '≥ 8.30'),
  ('Cc1cc(Nc2nc(N3CCN(C(=O)c4ccccc4[N+](=O)[O-])CC3)nn3cccc23)n[nH]1', '≥ 8.30'),
  ('Cc1cc(Nc2nc(N3CCN(C(=O)c4ccccc4-c4c(C)n[nH]c4C)CC3)nn3cccc23)n[nH]1', '≥ 8.30'),
  ('CCOc1cc(F)c(CC(=O)N2CCN(c3nc(Nc4cc(C)[nH]n4)c4cccn4n3)CC2)c(F)c1', '≥ 8.30'),
  ('CC[C@H](C(=O)N1CCN(c2nc(Nc3cc(C)[nH]n3)c3cccn3n2)CC1)c1ccccc1', '≥ 8.30'),
  ('Cc1cc(Nc2nc(N3CCN(C(=O)c4cnco4)CC3)nn3cccc23)n[nH]1', '≥ 8.30'),
  ('COc1ccc(CC(=O)N2CCN(c3nc(Nc4cc(C)[nH]n4)c4cccn4n3)CC2)cc1', '≥ 8.30'),
  ('Cc1cc(Nc2nc(N3CCN(C(=O)c4c(F)cccc4Cl)CC3)nn3cccc23)n[nH]1', '≥ 8.30'),
  ('Cc1cc(Nc2nc(N3CCN(C(=O)c4ccccc4F)CC3)nn3cccc23)n[nH]1', '≥ 8.30'),
  ('Cc1cc(Nc2nc(N3CCN(C(=O)COCc4ccccc4)CC3)nn3cccc23)n[nH]1', '≥ 8.30'),
  ('Cc1cc(Nc2nc(N3CCN(C(=O)C(O)c4ccc(Cl)cc4)CC3)nn3cccc23)n[nH]1 (stereo not drawn)', '≥ 8.30'),
  ('CCC(C(=O)N1CCN(c2nc(Nc3cc(C)[nH]n3)c3cccn3n2)CC1)c1ccccc1 (stereo not drawn)', '≥ 8.30');

----------
# STUDY_SYSTEM: JAK3 (Homo sapiens)
# Sequence (P52333 1-1124): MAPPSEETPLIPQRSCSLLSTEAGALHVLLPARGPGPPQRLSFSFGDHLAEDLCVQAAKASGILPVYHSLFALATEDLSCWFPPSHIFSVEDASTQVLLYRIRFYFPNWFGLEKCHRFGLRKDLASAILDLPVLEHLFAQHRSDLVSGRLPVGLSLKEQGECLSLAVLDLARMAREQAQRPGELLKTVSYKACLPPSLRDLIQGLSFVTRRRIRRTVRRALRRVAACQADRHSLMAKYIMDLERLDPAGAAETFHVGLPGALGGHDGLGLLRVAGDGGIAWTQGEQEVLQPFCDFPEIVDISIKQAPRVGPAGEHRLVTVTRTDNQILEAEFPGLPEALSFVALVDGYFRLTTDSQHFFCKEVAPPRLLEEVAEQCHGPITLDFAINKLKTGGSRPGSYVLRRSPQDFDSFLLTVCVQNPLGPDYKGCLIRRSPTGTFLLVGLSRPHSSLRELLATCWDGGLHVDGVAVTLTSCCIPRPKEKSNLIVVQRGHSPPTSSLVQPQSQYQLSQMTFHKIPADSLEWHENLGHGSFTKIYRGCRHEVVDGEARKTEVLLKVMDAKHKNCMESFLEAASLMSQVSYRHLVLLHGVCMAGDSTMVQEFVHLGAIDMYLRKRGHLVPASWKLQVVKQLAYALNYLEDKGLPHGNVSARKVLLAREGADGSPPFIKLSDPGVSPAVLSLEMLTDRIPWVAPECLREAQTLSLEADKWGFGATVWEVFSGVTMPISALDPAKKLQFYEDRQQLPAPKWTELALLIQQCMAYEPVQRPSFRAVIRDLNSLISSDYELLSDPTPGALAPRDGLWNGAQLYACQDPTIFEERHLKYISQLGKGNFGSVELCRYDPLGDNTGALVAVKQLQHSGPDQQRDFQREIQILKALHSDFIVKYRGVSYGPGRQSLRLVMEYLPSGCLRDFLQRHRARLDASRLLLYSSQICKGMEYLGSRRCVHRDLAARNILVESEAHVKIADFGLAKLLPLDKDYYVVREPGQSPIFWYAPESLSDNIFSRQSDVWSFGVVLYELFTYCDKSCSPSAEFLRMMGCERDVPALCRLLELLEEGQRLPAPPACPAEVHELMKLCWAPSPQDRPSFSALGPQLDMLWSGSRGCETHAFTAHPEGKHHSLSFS
# ASSAY_OVERVIEW: JAK3 Tyrosine Kinase Assay
# Format: biochemical
# MEASUREMENT_CONTEXT: ATP 8 μM; JAK3 2.5 nM; 60 min room temperature
pIC50: −log10 of the molar value.
Output class 1 for pIC50 not less than 6; output class 0 otherwise.

INSERT INTO assay_data (molecule, category) VALUES
  ('Cc1cc(Nc2nc(N3CCN(C(=O)c4ccccc4-c4ccccc4)CC3)nn3cccc23)n[nH]1 [Example 200]', 'class 1'),
  ('COc1ccc(CC(=O)N2CCN(c3nc(Nc4cc(C)[nH]n4)c4cccn4n3)CC2)cc1 [Example 45]', 'class 1'),
  ('Cc1cc(Nc2nc(N3CCN(C(=O)Cc4ccc(C(F)(F)F)cc4)CC3)nn3cccc23)n[nH]1 [Example 43]', 'class 0'),
  ('Cc1cc(Nc2nc(N3CCN(C(=O)c4ccns4)CC3)nn3cccc23)n[nH]1 [Example 106]', 'class 1'),
  ('COc1cccc(CC(=O)N2CCN(c3nc(Nc4cc(C)[nH]n4)c4cccn4n3)CC2)c1 [Example 49]', 'class 1'),
  ('Cc1cc(Nc2nc(N3CCN(C(=O)Cc4ccc(OC(F)(F)F)cc4)CC3)nn3cccc23)n[nH]1 [Example 91]', 'class 1'),
  ('Cc1cc(Nc2nc(N3CCN(C(=O)Cc4ccccc4C(F)(F)F)CC3)nn3cccc23)n[nH]1 [Example 10]', 'class 1'),
  ('Cc1cc(Nc2nc(N3CCN(C(=O)[C@@H](NC(=O)OC(C)(C)C)c4ccc(F)cc4)CC3)nn3cccc23)n[nH]1 [Example 132]', 'class 1'),
  ('Cc1cc(Nc2nc(N3CCN(C(=O)C(C)(C)c4ccccc4)CC3)nn3cccc23)n[nH]1 [Example 7]', 'class 0');
